measurement_target: SARS-CoV-2 Spike Protein (RBD)(R319-F541).hFc (SARS-CoV-2)
assay_name: Luminex, supernatant
For each record, write down the corresponding MFI.

Please give the measured MFI for this binder: mAb10938 (antibody, V domains shown) VH: EVQLVESGGGLVQPGGSLRLSCAVSGFTVSSNYMSWVRQAPGKGLEWVSLIYSGGSTFYADSVKGRFTISRHNSKNTLYLQMNSLRAEDTAVYYCAREGGYSYDYNYWGQGTLVTVSS VL: DIQMTQSPSSLSASVGDRVTITCQASQDIRNYLNWYQQKPGKAPKLLIYDASNLETGVPSRFSGIGSGTDFTFTISSLQPEDIATYYCQQYDNLPITFGQGTRLEIKR
29600 MFI

Please give the measured MFI for this binder: mAb10921 (antibody, V domains shown) VH: EVQLVESGGGLVQPGGSLRLSCAASGITVSSNYMSWVRQAPGKGLEWVSVIYSGGSTFYADSVKGRFTISRHNSKNTLYLQMNSLRAEDTAVYYCARERNFDAFDIWGQGTMVTVSS VL: DIQMTQSPSSVSASVGDRVTITCRASQGISSWLAWYQQKPGKAPKLLIYAASSLQSGVPSRFSGSGSGTDFTLTISSLQPEDFATYYCQQANSFPLFTFGPGTKVDIKR
22300 MFI

Please give the measured MFI for this binder: mAb10964 (antibody, V domains shown) VH: QVQLQESGPGLVKPSETLSLTCTVSGGSINNYYWIWIRQPPGKGLEWIGYIYHSGSTNYNPSLKSRVTISVDTSKNQFSLKVSSVTAADTAVYYCANMVRGVYEDDYWGQGTLVTVSS VL: DIQMTQSPSSLSASVGDRVTITCRASQSISNYLNWYQQKPGKAPKLLIFAASSLRSGVPSRFSGSGSGTDFTLTISSLHPEDFATYYCQQNYNTPLTFGPGTKVDIKR
33100 MFI

Please give the measured MFI for this binder: mAb10914 (antibody, V domains shown) VH: EVQLVESGGGLVQPGGSLRLSCAASGLIVSRNYMIWVRQAPGKGLEWVSVIYSGGSTFYADSVKGRFTISRHNSKNTLYLQMNSLRAEDTAVYYCARDLGTGGMDVWGQGTTVTVSS VL: DIQLTQSPSFLSASVGDRVTITCWASQGISSYLAWYQQKPGKAPKLLIYAASTLQSGVPSRFSGSGSGTEFTLTISSLQPEDFATYYCQQLNSYPLTFGGGTKVEIKR
30500 MFI
